procedure-text: survival after telomere uncapping, modulators, primary screen, cell-based (AID 1259312);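 also: virus expresses mutant telomerase RNA that uncaps telomeres and kills cells; compound added 2 days after infection so exposure lasts 3 days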
condition-description: HCT116 + Ad-hTR-mut, MTT, 5 d; at 10 µM
About 200 (4.4%) of roughly 4,500 compounds were called active.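 The calls were made as follows: active = cell survival measured by absorbance rises more than 2.5-fold over infected cells without compound; inactive = the rest.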 The entries come from a sample that favours actives as a whole.
Labels: active, inactive

> print(dat)
                                    compound       cat
 1  CCn1c(=O)n(CC)c2cc(S(=O)(=O)NC3CCCCC3)ccc21  inactive
 2  O=C(O)CCCn1c(O)c(/C=C2/C=c3ccccc3=NC2=O)sc1=S    active
 3      N#Cc1c(C(F)(F)F)cc(-c2cccs2)[nH]c1=S    active
 4         Cn1cc(Cl)c(C(=O)N2CCc3ccccc3C2)n1  inactive
 5  CC12C=CC(=O)C=C1CCC1C3CC(O)C(O)(C(=O)CO)C3(C)CC(O)C12F (centres undefined)  inactive
 6                 Cc1cc(C(F)(F)F)nn1CC(N)=O    active
 7                           COC(=O)c1nonc1N  inactive
 8  O=C(CC(C(=O)O)n1ccnc1)c1ccc(C2CCCCC2)cc1 (centres undefined)    active
 9            c1csc(CNc2ccc(NCc3cccs3)cc2)c1  inactive
10       S=C(c1ccc(-c2ccc(Br)cc2)o1)N1CCOCC1  inactive
11           COc1ccc(-c2nc(-c3cccnc3)no2)cc1  inactive
12  O=C(O)CCCCCn1c(O)c(C2=c3cc(Br)ccc3=NC2=O)sc1=S  inactive
13  O=C(O)C(C(=O)O)C1C=CCC1 (centres undefined)  inactive
14  O=C(CC(c1ccc(Cl)c(Cl)c1)C1CCCCCC1=O)c1ccc(Cl)cc1 (centres undefined)  inactive

----------
procedure-text: survival after telomere uncapping, modulators, primary screen, cell-based (AID 1259312);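 also: virus expresses mutant telomerase RNA that uncaps telomeres and kills cells; compound added 2 days after infection so exposure lasts 3 days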
condition-description: HCT116 + Ad-hTR-mut, MTT, 5 d; at 10 µM
The campaign covered roughly 4,500 compounds. About 200 (4.4%) were called active.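 How the source made its calls: active means cell survival measured by absorbance rises more than 2.5-fold over infected cells without compound; inactive means the rest.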 Many of the other results were omitted from the sample, so actives are more common in it than they were.
Labels: active, inactive

> print(dat)
                                    compound       cat
 1  N#CC1=C(N)OC2=C(C(=O)CCC2)C1c1cc(F)ccc1F (stereo unspecified)    active
 2           CS(=O)(=O)Nc1ccc2c3c(cccc13)CC2    active
 3              CCCSc1nnc(-c2ccc(Cl)cc2Cl)o1  inactive
 4           Brc1cccc(-c2nnc(SCc3ccon3)o2)c1  inactive
 5    Clc1ccc(CSc2nnc(-c3ccccc3Cl)o2)c(Cl)c1    active
 6    N#Cc1c(N)nc2c(c1-c1ccc(Cl)cc1Cl)CCCCC2    active
 7  O=C(Nc1ccc2c(c1)OCCO2)C1CC(=O)N(C2CCCCC2)C1 (stereo unspecified)  inactive
 8             C1CCN(c2nc3nonc3nc2N2CCCC2)C1  inactive
 9              O=[N+]([O-])c1ccc(Cl)cc1SCCO    active
10  O=[N+]([O-])c1ccc(NCCO)c([N+](=O)[O-])c1  inactive
11  CCCCc1sc(-c2c(C#N)c(N)nc3c2CCCC3)cc1[N+](=O)[O-]  inactive
12              COc1ccc2nc(N=C(N)N)nc(C)c2c1  inactive
13                  Cc1nc(N=C(N)N)nc2ccccc12    active
14  CS(=O)(=O)N1CCc2cc(S(=O)(=O)N3CCC(c4ccccc4)CC3)ccc21  inactive
15    Cc1ccc(C)c(-c2c(C#N)c(N)nc3c2CCCCC3)c1  inactive
16  CCCCC(CC)C(=O)NC(C)(C)C (stereo unspecified)  inactive
17  Cc1ccc(C2C(C#N)=C(N)OC3=C2C(=O)CCC3)o1 (stereo unspecified)  inactive
18  COc1ccc(CC2=CN(C)CC3=C2OC(N)=C(C#N)C3c2ccc(OC)cc2)cc1 (stereo unspecified)  inactive
19          O=C(O)CN1C(=O)C(=O)c2cc(Br)ccc21  inactive
20  Clc1ccc(-c2nnc(SCc3nc(-c4ccccc4)no3)o2)cc1  inactive
21       COc1ccc(S(=O)(=O)N2CCCc3ccccc32)cc1  inactive
22    NCCNc1ccc([N+](=O)[O-])cc1[N+](=O)[O-]  inactive
23       N#Cc1c(N)nc2c(c1-c1cccc(Br)c1)CCCC2    active
24                O=c1ccc(=O)n2n1Cc1ccccc1C2    active
25                  CS(=O)(=O)N1CCc2ccccc2C1  inactive
26                     CCNC(=S)Nc1ccc(Br)cc1  inactive
27      N#Cc1c(N)nc2c(c1-c1cccc(Br)c1)CCCCC2  inactive
28  CN1CC(C(=O)Nc2ccc3c4c(cccc24)CC3)CC1=O (stereo unspecified)  inactive
29  CCCN1CC2=C(OC(N)=C(C#N)C2c2ccc(SC)cc2)/C(=C/c2ccc(SC)cc2)C1 (stereo unspecified)    active
30            CCNCCNc1ccc([N+](=O)[O-])cc1Cl  inactive
31         CC(=O)C(C(C)=O)=C1OC(=O)c2ccccc21  inactive
32  C/C(Cn1nnc2ccccc21)=N\NC(=O)c1c[nH]c2ccccc12  inactive
33  CC(C)N1C=C(Cc2ccc(F)cc2)C2=C(C1)C(c1ccc(F)cc1)C(C#N)=C(N)O2 (stereo unspecified)  inactive
34  Cc1nn(-c2ccccc2)c(Cl)c1N=Nc1c(C)nn(-c2ccccc2)c1Cl  inactive
35  Clc1ccc(CSc2nnc(-c3cccc(Br)c3)o2)c(Cl)c1    active
36      Clc1ccc(-c2nnc(SCc3ccccc3)o2)c(Cl)c1  inactive

Measured values drawn from PubChem BioAssay AID1259312 for this set.
